- Tested on: K4 kissing-loop RNA reporter;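 note: bound reporter read as fluorescence of individual clusters on recovered sequencing chips by microscopy, with normalized cluster intensities fitted with a binding model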
- MEASUREMENT DESCRIPTION: apparent KD of K4 kissing-loop reporter; higher = weaker reporter binding
- CONDITION: Eterna round: R107; input ligand: arginine 13.2 mM
Entries and their apparent KD of K4 kissing-loop reporter
Dear colleague, please return just the value in nM, with no unit written.

[[record]]
sequence_text = "UGCUUUAGAAUACAAGGUAUUUACACUGAUACCAGUCAGUUAAAUGACCCUUGGCAGCAGUGUCAGUGAUGUUGACACAACACAU [Theo A Ex t4]"
measurement_name = "apparent KD of K4 kissing-loop reporter"
units_symbol = "nM"
assay_result = 173

[[record]]
sequence_text = "AAGUGAUGUUGUAGUGAUGUUGUGAUGUUGCAGGAUAUAUAGUGAUGUAGAAGGGUAAGUACUCAUGUUGUUAGUAAGUGAUGUU [bttutmullin]"
measurement_name = "apparent KD of K4 kissing-loop reporter"
units_symbol = "nM"
assay_result = 43.2

[[record]]
sequence_text = "GUGCGGCUAGUGAUGUUGGUUGCGUGGGAAGGAGCGCAGAAACAUGCAGGUAGGUCGCCCACACCUCUGAAAGGAGGCUAAUUCA [Bisobi]"
measurement_name = "apparent KD of K4 kissing-loop reporter"
units_symbol = "nM"
assay_result = 128

[[record]]
sequence_text = "GUGUCCUAGUCGGCCGCCACUGGGUGCAAAAUAGAAGGAGCAUUGCACAUCAGUGAUGUUGAUGUCAGGACCGGGACUAGGGUGU [KL-SSTryp-B5 Brourdwalk1]"
measurement_name = "apparent KD of K4 kissing-loop reporter"
units_symbol = "nM"
assay_result = 406

[[record]]
sequence_text = "UGAUAGGACAGAAGGAGCGGUAGUGAUGUUACCAAAAGAAUAAGGUGUCAAAAGACACCCUGCCAGGUAGGUCGCUGUCCUAUCU"
measurement_name = "apparent KD of K4 kissing-loop reporter"
units_symbol = "nM"
assay_result = 111


Input line: Given AAGCAGUCACUCGAACCCAUCGAAGAUGGGCGAGGACCGGUACGGCCGCCACUCGGAGUGAUGUUCCGAAGACUGCAAAAUAAAA , state its recorded apparent KD of K4 kissing-loop reporter.
Output line: 367

Input line: Another sequence to check: ACAAUGAUCAAAGGAUAUCGUAAGUUAUACAUCACGCGAUGAUUCAGAGGCGAGUGAUGUUUGUCUCGAGAAGGUUGGUACCGUC [theeternabot_exclusion_KL_FMN_B_37]
Output line: 539

Input line: Same question for ACGUCACGUAUACUGGUGGUUUCGAUCGAUACCAGUAGCGAGAGUUACCCUUGGCAGCGACAUGAGUGAUGUUCAUGUAUGAAGA [KL-XTheo-A1 #analogue] please.
Output line: 111

Input line: What about UACUAUAGUGAUGUUAUAGAUAAACCAGAUACCAGUGUAACAUAACACCCUUGGCAGCUGAUGAGGGAACUAUUGAAAACAAUAG [AstroSTH-A#7newdesignED4.86] ?
Output line: 203

Input line: CCUUUAGGCUCGGCCGCCACUCCAGUGAUGUUGGAGGUGCGUACAGAGCUAGAAAGCGUUAUCAGGAGGACCGGGAGUUUUAACG [Leorte] , same question.
Output line: 107

Input line: // next record CGCCAGUGAUGUUGGUGCAGCUACCGGGAAGGAGCGCCCAUAAGGGCAGGUAGGUCGCCCGGGCAGUGAUGUUGCCUCAUGCCGC [Exclusion Arginine A GF 22]
Output line: 236

Input line: Record: GCUAUGGUAGGAAGGAGCGCUUAUUUAUUUUUAAGAGUGAUGUUCGUUAGUAGAUAUUUAAAGCAGGUAGGUCGCCUACUAUAGC [Arginine B K4 14]
Output line: 124

Input line: How about this sequence: CGAGCUUCCUGGGAUACCAGUCGGAGUCUCAGAGCUCGGAGUGAUGUUCUGGGAUGUUUCGGCCCUUGGCAGCUCUGGGACUCCU [#2 Exclusion - Theophylline B Attempt #20 (HarryS)]
Output line: 576

Input line: Next sequence up: UGACUACAAGGAAAAUAAUCCUAGUGAUGUUAGGAUAUGCUGAUAAGCAGAAGGAACUGAGAUCGAAAGAUCUCAAAUGUAGUCU [FmnAX 27 Mat Inspired #SwitchBubble #StaticStem #K4Early]
Output line: 92

Input line: Param item: GGAUCCACCAGUGAUGUUGGAAAAUACUCCAAGGAUAUGACGAAAGUCAGAAGGUGGUAGACUGGACAAAGUCCAGUCGGAUCCA [FmnA 27 #SwitchBubble #K4Early]
Output line: 205

Input line: Lookup UUUUUUUACUGAAGGAGCGGCAAUUGAUACGUAGAUAUAGUGAUGUUAUAUAAGAUAGAGAGCCAGGUAGGUCGCAGAUUUUUUC [ExArgB.X]
Output line: 160

Each recorded value in this set is attributed to the supplement of paper PMC9170038.
